# human B cell proliferation, with protein G crosslinking, % Max Activity annotations
STUDY SYSTEM: human CD40 on cells (human, UniProt P25942 21-277)
Sequence (P25942 21-277 limits assumed): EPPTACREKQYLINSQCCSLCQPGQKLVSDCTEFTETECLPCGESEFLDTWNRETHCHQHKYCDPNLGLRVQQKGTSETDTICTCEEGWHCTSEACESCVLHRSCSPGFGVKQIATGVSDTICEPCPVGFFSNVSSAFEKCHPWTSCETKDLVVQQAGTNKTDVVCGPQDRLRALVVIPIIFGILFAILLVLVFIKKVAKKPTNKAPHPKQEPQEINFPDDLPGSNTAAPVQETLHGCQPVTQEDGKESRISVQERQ
EXPERIMENT DESCRIPTION: cell-based or functional assay
Give the value in % but do not write % after it.

Please review the entries below; each comes with its answer.
33H6 (antibody, IgG4, V domains shown, also called 4883-1) VH: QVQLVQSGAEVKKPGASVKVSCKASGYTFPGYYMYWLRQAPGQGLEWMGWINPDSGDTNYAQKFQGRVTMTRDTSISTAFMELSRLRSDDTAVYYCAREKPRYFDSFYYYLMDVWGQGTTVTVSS VL: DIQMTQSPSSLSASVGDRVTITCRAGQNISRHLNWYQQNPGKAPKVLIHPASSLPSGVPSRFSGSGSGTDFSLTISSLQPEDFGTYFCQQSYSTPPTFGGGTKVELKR | 73.4
36F3 (antibody, IgG4, V domains shown, also called 4891-1) VH: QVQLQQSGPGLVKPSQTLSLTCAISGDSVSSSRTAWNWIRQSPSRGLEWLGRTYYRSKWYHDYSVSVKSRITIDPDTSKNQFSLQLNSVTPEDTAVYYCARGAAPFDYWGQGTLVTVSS VL: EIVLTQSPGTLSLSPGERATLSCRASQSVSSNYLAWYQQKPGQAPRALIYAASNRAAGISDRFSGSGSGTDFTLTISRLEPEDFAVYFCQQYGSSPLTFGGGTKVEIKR | 81.9

Please look at the following binder next.
In plain terms, 4G7 (antibody, IgG4, V domains shown, also called 4869-1) VH: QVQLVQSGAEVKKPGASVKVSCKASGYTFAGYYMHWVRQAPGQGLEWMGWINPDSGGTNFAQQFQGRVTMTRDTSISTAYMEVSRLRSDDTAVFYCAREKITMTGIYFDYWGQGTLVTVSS VL: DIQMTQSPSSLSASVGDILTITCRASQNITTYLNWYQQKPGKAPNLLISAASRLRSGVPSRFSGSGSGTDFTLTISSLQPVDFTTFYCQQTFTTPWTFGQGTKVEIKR has a documented human B cell proliferation, with protein G crosslinking, % Max Activity of 70.5
